- assay details: Binding affinity to Rous sarcoma virus v-SRC SH2 domain (unknown origin) by ITC assay

| smiles text | Kd / µM |
| --- | --- |
| O=c1cc(C(F)(F)F)c2ccc(OP(=O)(O)O)cc2o1 | 177 |
| O=P(O)(O)Oc1c[nH]c2ccc(Br)c(Cl)c12 | 104 |

----------
- target: Phosphopantetheine adenylyltransferase (Escherichia coli (strain K12), UniProt P0A6I6)
- Sequence (P0A6I6 whole entry): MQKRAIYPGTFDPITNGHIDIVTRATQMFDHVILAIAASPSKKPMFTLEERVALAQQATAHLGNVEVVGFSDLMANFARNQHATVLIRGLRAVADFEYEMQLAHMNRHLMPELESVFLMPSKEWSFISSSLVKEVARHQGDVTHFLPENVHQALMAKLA
- assay details: Inhibition of Escherichia coli PPAT after 5 mins by reverse ATP-generating-luciferase assay
pIC50: −log10 of the molar value.

| smiles text | pIC50 |
| --- | --- |
| O=C(O)c1cc2[nH]c3ccc(Br)cc3c(=O)n2n1 | 5.21 |
| O=C(NCCOc1cccc(Cl)c1)C(F)(F)F | < 4.00 |
| COc1ccc2nc(C(F)(F)F)oc(=O)c2c1 | < 4.00 |

----------
Below: a set of entries, each annotated with reported Kd.
- assay details: Binding affinity to 16S32 ribosomal RNA (unknown origin) by […] FAXS analysis
property label: Kd (µM)

| compound | property label | meas value |
| --- | --- | --- |
| N[C@H]1[C@@H](O[C@H]2[C@H](O)[C@@H](O)[C@H](N)C[C@@H]2N)O[C@H](CF)[C@@H](O)[C@@H]1O | Kd | 300 |
| NC1CC(N)C(F)C1 (racemic) | Kd | 2000 |
